Taken from patent US8871753B2.

target: Recombinant Human Anaplastic Lymphoma Kinase (Homo sapiens, UniProt Q9UM73); construct: purchased Invitrogen, Carlsbad, Calif; assay: ALK HTRF kinase assay; format: biochemical; conditions: Table B1; cells without percent sign
Sequence (Q9UM73 19-1620): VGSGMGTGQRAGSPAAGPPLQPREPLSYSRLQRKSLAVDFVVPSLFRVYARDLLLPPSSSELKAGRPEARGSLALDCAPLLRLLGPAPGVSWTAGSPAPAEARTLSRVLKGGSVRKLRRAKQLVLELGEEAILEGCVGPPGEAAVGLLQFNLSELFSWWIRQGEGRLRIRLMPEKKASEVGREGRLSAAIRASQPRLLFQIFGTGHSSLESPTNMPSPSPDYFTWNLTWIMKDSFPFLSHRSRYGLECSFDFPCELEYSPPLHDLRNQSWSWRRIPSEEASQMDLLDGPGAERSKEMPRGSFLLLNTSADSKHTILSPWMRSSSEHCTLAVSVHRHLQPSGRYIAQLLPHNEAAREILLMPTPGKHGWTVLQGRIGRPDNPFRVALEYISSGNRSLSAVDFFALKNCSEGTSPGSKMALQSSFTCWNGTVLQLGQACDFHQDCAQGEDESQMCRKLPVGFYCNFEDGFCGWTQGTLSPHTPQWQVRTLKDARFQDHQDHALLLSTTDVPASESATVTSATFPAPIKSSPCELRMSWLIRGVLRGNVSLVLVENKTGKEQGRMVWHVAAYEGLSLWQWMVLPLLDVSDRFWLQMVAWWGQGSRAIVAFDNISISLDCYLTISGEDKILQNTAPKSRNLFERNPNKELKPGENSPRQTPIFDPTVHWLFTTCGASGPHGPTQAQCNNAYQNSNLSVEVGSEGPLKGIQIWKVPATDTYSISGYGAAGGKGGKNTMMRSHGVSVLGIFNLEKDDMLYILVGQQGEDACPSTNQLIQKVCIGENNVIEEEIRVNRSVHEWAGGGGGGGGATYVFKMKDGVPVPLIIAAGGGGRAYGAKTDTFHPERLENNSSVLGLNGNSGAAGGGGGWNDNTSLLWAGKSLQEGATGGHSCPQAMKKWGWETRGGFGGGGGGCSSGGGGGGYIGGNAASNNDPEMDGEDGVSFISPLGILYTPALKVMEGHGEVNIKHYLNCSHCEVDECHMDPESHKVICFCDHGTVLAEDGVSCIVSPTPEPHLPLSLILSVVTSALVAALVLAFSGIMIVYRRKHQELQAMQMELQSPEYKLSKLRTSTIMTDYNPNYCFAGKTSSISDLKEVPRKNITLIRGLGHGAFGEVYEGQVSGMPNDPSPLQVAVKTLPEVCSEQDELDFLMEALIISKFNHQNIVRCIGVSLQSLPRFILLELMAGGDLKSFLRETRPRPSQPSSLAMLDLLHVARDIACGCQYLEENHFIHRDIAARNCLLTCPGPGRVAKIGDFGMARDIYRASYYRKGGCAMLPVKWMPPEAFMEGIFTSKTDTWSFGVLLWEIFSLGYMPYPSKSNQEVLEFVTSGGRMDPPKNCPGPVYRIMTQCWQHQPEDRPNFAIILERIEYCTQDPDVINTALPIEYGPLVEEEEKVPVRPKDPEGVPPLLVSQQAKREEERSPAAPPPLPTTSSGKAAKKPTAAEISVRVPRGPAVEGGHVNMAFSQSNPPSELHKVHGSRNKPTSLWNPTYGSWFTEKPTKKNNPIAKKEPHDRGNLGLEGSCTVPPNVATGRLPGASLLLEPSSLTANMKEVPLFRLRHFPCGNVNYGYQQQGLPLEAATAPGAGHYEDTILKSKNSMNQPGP
Where a name gives a salt, the structure may show the parent alone.
REPORTED ENDPOINT: IC50

Consider the worked cases shown below.
O=C(Nc1ccc2cc1CCc1cccc(c1)Nc1ncc(Cl)c(n1)N2)C1CCCC1 [Example B60, trifluoroacetate]    > 1000 nM
Clc1nccc(N2CCN(Cc3cc4cc(c3)Nc3nc(ncc3Cl)Nc3cccc(c3)CC4)CC2)n1 [Example B218, tris(trifluoroacetate)]    > 10000 nM

Field request: IC50 | item: O=C(Nc1ccccc1Cl)c1cc2cc(c1)Nc1nc(ncc1Cl)Nc1cccc(c1)CC2 [Example B14, trifluoroacetate]
> 1000 nM

---

molecular target: Recombinant Human Anaplastic Lymphoma Kinase (Homo sapiens); construct: purchased Invitrogen, Carlsbad, Calif; experiment: ALK HTRF kinase assay; type: biochemical; settings: compound at 500 nM or 1 mM; 90 μM ATP
Structures can show the parent of a compound that is named as a salt.
REPORTED ENDPOINT: ALK % of inhibition at a concentration of 500 nM or 1 mM (%)

Cc1ccnc(N2CCC(CC(=O)Nc3ccc4cc3CCc3cncc(c3)Nc3ncc(Cl)c(n3)N4)CC2)c1 [Example A176, tris(trifluoroacetate)]    25

(A) CN(C)S(=O)(=O)N1CCC(CC(=O)Nc2ccc3cc2CCc2cccc(c2)Nc2ncc(Cl)c(n2)N3)CC1 [Example A81, trifluoroacetate]
(B) Cc1noc(C)c1C(=O)N1CCC(C(=O)Nc2ccc3cc2CCc2cccc(c2)Nc2ncc(Cl)c(n2)N3)CC1 [Example A34, trifluoroacetate]
Kindly identify which of A and B has the larger recorded ALK % of inhibition at a concentration of 500 nM or 1 mM value. # respond with the chosen item's label
A

(P) O=C(Nc1ccc2cc1CCc1cccc(c1)Nc1ncc(Cl)c(n1)N2)C1CCN(C(=O)c2ccccc2)CC1 [Example A30, trifluoroacetate]
(Q) O=C(CC1CCN(S(=O)(=O)c2ccccc2OC(F)(F)F)CC1)Nc1ccc2cc1CCc1cncc(c1)Nc1ncc(Cl)c(n1)N2 [Example A227, bis(trifluoroacetate)]
Would you kindly point out which of P and Q has the smaller ALK % of inhibition at a concentration of 500 nM or 1 mM figure? # respond with the chosen item's label
Q
(Q: 22%, P: 34%)

---

target: Recombinant Human Anaplastic Lymphoma Kinase (Homo sapiens); construct: purchased Invitrogen, Carlsbad, Calif; test: ALK HTRF kinase assay; format: biochemical; conditions: compound at 500 nM or 1 mM; 90 μM ATP
Where a name gives a salt, the structure may show the parent alone.
REPORTED ENDPOINT: ALK % of inhibition at a concentration of 500 nM or 1 mM (%)

Cc1nc(S(=O)(=O)N2CCC(CC(=O)Nc3ccc4cc3CCc3cncc(c3)Nc3ncc(Cl)c(n3)N4)CC2)cn1C [Example A230, bis(trifluoroacetate)]    50
O=C(CC1CCN(S(=O)(=O)c2ccco2)CC1)Nc1ccc2cc1CCc1cccc(c1)Nc1ncc(Cl)c(n1)N2 [Example A211, trifluoroacetate]    37
O=C(Nc1ccc2cc1CCc1cccc(c1)Nc1ncc(Cl)c(n1)N2)[C@@H]1CCNC1 [Example A45, bis(trifluoroacetate)]    29

(A) O=C(CC1CCN(C(=O)c2ccncc2)CC1)Nc1ccc2cc1CCc1cncc(c1)Nc1ncc(Cl)c(n1)N2 [Example A189, tris(trifluoroacetate)]
(B) O=C(CC1CCN(S(=O)(=O)c2ccccc2Cl)CC1)Nc1ccc2cc1CCc1cncc(c1)Nc1ncc(Cl)c(n1)N2 [Example A223, bis(trifluoroacetate)]
(C) NC(=O)COc1ccc2cc1CCc1cccc(c1)Nc1ncc(Cl)c(n1)N2 [Example A15, trifluoroacetate]
Rank by ALK % of inhibition at a concentration of 500 nM or 1 mM (largest to smallest). The response must list the labels following the requested ordering.
C, B, A

---

biological target: human JAK1 (a.a. 837-1142) (Homo sapiens, UniProt P23458); construct: human JAK1 (a.a. 837-1142); His tag (N); made in house; host or cells: insect cells (baculovirus); test: In vitro JAK kinase assay (HTRF, phosphorylation of a biotinylated peptide), JAK1; format: biochemical; conditions: method AA1 (90 μM ATP) or AA2 (1000 μM ATP), not stated per value; read-out: JAK1 IC50
Sequence (P23458 849-1154): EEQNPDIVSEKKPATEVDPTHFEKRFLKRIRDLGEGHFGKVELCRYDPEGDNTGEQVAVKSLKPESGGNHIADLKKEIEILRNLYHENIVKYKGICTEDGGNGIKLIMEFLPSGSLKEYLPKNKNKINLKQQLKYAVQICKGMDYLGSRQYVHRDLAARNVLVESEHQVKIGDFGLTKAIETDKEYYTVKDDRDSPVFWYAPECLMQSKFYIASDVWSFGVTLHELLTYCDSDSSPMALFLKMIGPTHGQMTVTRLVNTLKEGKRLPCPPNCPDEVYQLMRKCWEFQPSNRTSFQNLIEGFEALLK
Where a name gives a salt, the structure may show the parent alone.
REPORTED ENDPOINT: IC50 (nM)

Consider the worked cases shown below.
CC(=O)N1CCC(CC(=O)Nc2ccc3cc2CCc2cccc(c2)Nc2ncc(Cl)c(n2)N3)CC1 [Example A55, trifluoroacetate]    1.5
O=C(CC1CCN(C(=O)c2ccccc2)CC1)Nc1ccc2cc1CCc1cccc(c1)Nc1ncc(Cl)c(n1)N2 [Example A56, trifluoroacetate]    4.2
Cn1ccc(C(=O)N2CCC(CC(=O)Nc3ccc4cc3CCc3cncc(c3)Nc3ncc(Cl)c(n3)N4)CC2)n1 [Example A130, bis(trifluoroacetate)]    1.2
Cc1ncoc1C(=O)N1CCC(CC(=O)Nc2ccc3cc2CCc2cncc(c2)Nc2ncc(Cl)c(n2)N3)CC1 [Example A132, bis(trifluoroacetate)]    7.9

(I) O=C(CC1CCN(S(=O)(=O)c2ccccc2Cl)CC1)Nc1ccc2cc1CCc1cncc(c1)Nc1ncc(Cl)c(n1)N2 [Example A223, bis(trifluoroacetate)]
(II) O=C(Nc1ccc2cc1CCc1cccc(c1)Nc1ncc(Cl)c(n1)N2)C1CCN(C(=O)c2ccccc2)CC1 [Example A30, trifluoroacetate]
Would you kindly point out which of I and II has the smaller IC50 figure? # respond with the chosen item's label
I
(I: 5 nM, II: 28 nM)

(1) CC(C)(C)NC(=O)N1CCC(CC(=O)Nc2ccc3cc2CCc2cncc(c2)Nc2ncc(Cl)c(n2)N3)CC1 [Example A113, bis(trifluoroacetate)]
(2) CN(C)C(=O)N1CCC(CC(=O)Nc2ccc3cc2CCc2cccc(c2)Nc2ncc(Cl)c(n2)N3)CC1 [Example A80, trifluoroacetate]
(3) CS(=O)(=O)N1CCC(CC(=O)Nc2ccc3cc2CCc2cncc(c2)Nc2ncc(Cl)c(n2)N3)C1 (stereo not drawn) [Example A91, bis(trifluoroacetate)]
(4) CNC(=O)N1CCC(CC(=O)Nc2ccc3cc2CCc2cncc(c2)Nc2ncc(Cl)c(n2)N3)CC1 [Example A100, bis(trifluoroacetate)]
Rank ascending by IC50. The response must list the labels following the requested ordering.
4, 3, 2, 1

(P) O=C(CC1CCN(S(=O)(=O)c2ccco2)CC1)Nc1ccc2cc1CCc1cccc(c1)Nc1ncc(Cl)c(n1)N2 [Example A211, trifluoroacetate]
(Q) Nc1nc(C(=O)N2CCC(CC(=O)Nc3ccc4cc3CCc3cncc(c3)Nc3ncc(Cl)c(n3)N4)CC2)cs1 [Example A217, tris(trifluoroacetate)]
(R) N#Cc1cc(F)c(Cl)nc1N1CCC(CC(=O)Nc2ccc3cc2CCc2cncc(c2)Nc2ncc(Cl)c(n2)N3)CC1 [Example A241, tris(trifluoroacetate)]
(S) Cc1cc(C(=O)N2CCC(CCC(=O)Nc3ccc4cc3CCc3cncc(c3)Nc3ncc(Cl)c(n3)N4)CC2)no1 [Example A125, bis(trifluoroacetate)]
Rank ascending by IC50. The response must list the labels following the requested ordering.
S, Q, P, R
(S: 1.7 nM, Q: 4.2 nM, P: 12 nM, R: 42 nM)

(I) O=C(CC1CCN(C(=O)c2ccc(F)cc2)CC1)Nc1ccc2cc1CCc1cncc(c1)Nc1ncc(Cl)c(n1)N2 [Example A193, bis(trifluoroacetate)]
(II) O=C(CC1CCN(C(=O)c2ccns2)CC1)Nc1ccc2cc1CCc1cncc(c1)Nc1ncc(Cl)c(n1)N2 [Example A168, bis(trifluoroacetate)]
Would you kindly point out which of I and II has the smaller IC50 figure? # respond with the chosen item's label
I
(I: 12 nM, II: 22 nM)

(A) O=C(CCC1CCNCC1)Nc1ccc2cc1CCc1cncc(c1)Nc1ncc(Cl)c(n1)N2
(B) CCNC(=O)N1CCC(CC(=O)Nc2ccc3cc2CCc2cccc(c2)Nc2ncc(Cl)c(n2)N3)CC1 [Example A57, trifluoroacetate]
(C) Clc1cnc2nc1Nc1cccc(c1)CCCc1cccc(c1)N2
(D) O=C(Nc1ccc2cc1CCc1cccc(c1)Nc1ncc(Cl)c(n1)N2)C1CCN(C(=O)NC2CCCC2)CC1 [Example A61, trifluoroacetate]
Rank by IC50 (largest to smallest). The response must list the labels following the requested ordering.
C, D, A, B
(C: 87 nM, D: 29 nM, A: 10 nM, B: 5.5 nM)

---

target: human JAK3 (a.a. 781-1124) (Homo sapiens, UniProt P52333); construct: JAK3 (a.a. 781-1124); His tag (N); made in house; host or cells: insect cells (baculovirus); experiment: In vitro JAK kinase assay (HTRF, phosphorylation of a biotinylated peptide), JAK3; format: biochemical; conditions: Table D1
Sequence (P52333 781-1124): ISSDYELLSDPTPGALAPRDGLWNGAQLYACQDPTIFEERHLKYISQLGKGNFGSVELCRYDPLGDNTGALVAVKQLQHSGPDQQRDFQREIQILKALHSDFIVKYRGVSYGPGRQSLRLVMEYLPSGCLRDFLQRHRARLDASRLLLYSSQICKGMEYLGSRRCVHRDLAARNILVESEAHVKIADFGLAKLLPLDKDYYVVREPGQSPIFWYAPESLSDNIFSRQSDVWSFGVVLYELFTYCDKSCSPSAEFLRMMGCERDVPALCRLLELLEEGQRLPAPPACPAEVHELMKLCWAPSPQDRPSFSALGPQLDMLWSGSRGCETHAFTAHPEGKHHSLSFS
In this section, each of the compounds is paired with its reported IC50.

Consider the worked cases shown below.
O=C(COc1ccc2cc1CCc1cncc(c1)Nc1ncc(Cl)c(n1)N2)N1CCN(S(=O)(=O)c2ccccc2F)CC1 [Example D253, bis(trifluoroacetate)]    > 400 nM
O=C(COc1ccc2cc1CCc1cncc(c1)Nc1ncc(Cl)c(n1)N2)N1CCN(c2ccccn2)CC1 [Example D231, tris(trifluoroacetate)]    > 400 nM

Field request: IC50 | item: O=C(CC1CN(c2nc3cccnc3o2)C1)Nc1ccc2cc1CCc1cncc(c1)Nc1ncc(Cl)c(n1)N2 [Example D141, tris(trifluoroacetate)]
> 1000 nM
